System: MIA PaCa-2 (pancreatic carcinoma)
ASSAY COMMENT: Cytotoxicity/growth inhibition assay (CellTiter-Glo), MIA PaCa-2
Format: cell-based, human
RUN PARAMETERS: Homo sapiens, 72 h; MIA PaCa-2, 3 days culture
MEASUREMENT KIND: pIC50
Numbers only, as −log10 of the molar value.

Return reported pIC50; argument: Cl.O=C(CS(=O)(=O)CCOP(=O)(N(CCCl)CCCl)N(CCCl)CCCl)NCc1cccnc1 [hydrochloride] 4.80

====

Test system: DLD-1 (colorectal adenocarcinoma)
ASSAY COMMENT: Cytotoxicity/growth inhibition assay (CellTiter-Glo), DLD-1
Type: cell-based, human
RUN PARAMETERS: Homo sapiens, 96 h; DLD-1, 4 days culture
MEASUREMENT KIND: IC50 (µM)
Numbers only, in µM.

What value of IC50 on DLD-1 (colorectal adenocarcinoma) does Cl.O=C(CS(=O)(=O)CCOP(=O)(N(CCCl)CCCl)N(CCCl)CCCl)NCc1cccnc1 [hydrochloride] have? 12

====

ASSAY COMMENT: Solubility in water
Type: physicochemical
So I've got a bunch of molecules here, and I need their solubility values.

- MOLECULE: "Cl.O=C(CS(=O)(=O)CCOP(=O)(N(CCCl)CCCl)N(CCCl)CCCl)NCc1cccnc1"
  OBSERVED RESULT: "≥ 10000 µg/mL"

Next up:
Return reported solubility; argument: O=C(CS(=O)(=O)CCOP(=O)(N(CCCl)CCCl)N(CCCl)CCCl)NCc1cccnc1.O=C(O)C(O)C(O)C(=O)O [tartrate salt] ≥ 5000 µg/mL
